Kindly supply the reported log10(Ki) values for the records listed here.
system-tested: T1, Mouse EphA2 (Ecto) (Mouse, UniProt Q03145 26-538)
T1 construct: extracellular domain; C-terminal polyHis; not shown: Fc fusion or C-terminal polyHis
T1 sequence (Q03145 26-538): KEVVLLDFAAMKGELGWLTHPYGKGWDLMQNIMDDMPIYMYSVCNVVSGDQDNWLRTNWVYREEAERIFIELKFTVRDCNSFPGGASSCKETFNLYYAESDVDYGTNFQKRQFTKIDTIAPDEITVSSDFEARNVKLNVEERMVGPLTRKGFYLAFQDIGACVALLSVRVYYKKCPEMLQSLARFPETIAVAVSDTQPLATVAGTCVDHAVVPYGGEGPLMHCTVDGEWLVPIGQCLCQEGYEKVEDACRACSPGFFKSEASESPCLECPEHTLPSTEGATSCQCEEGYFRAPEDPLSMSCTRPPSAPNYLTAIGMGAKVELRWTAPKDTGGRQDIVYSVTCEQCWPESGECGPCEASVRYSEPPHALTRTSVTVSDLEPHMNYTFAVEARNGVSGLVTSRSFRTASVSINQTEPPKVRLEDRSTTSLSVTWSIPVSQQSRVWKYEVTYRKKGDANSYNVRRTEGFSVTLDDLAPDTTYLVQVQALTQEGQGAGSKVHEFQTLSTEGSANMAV
method-description: FP competition; tracer Reference Compound C
Starred links: 1 amine or outer side, 2 acyl side, 3 side chain; linkers in the order of their positions; H or OH if unused. Positions of bridges follow the written chain, without caps; N, C: chain ends. No end group written: not given here. TATA = O=C(CC[*:1])N1CN(C(=O)CC[*:2])CN(C(=O)CC[*:3])C1
Reminder: these figures are log10 of reported Ki, in nM before transformation.

Form field log10(Ki), entry CPLVNPLCLHPGWTCLHGXXXXXXK (N-terminal acetyl; H17 = D-His; X at 19-24 = Sar; K25 = D-Lys; 3 Cys thioether-linked to TATA scaffold) [Bicycle Compound Number 78 (TATA scaffold), Ac-CPLVNPLCLHPGWTCL(D-His)G-Sar6-(D-K)] : 2.06

Note to self: log10(Ki) recorded for CPLVNPLCLHPGWSCXGQXXXXXXK (N-terminal acetyl; X16 = HArg (homoarginine); X at 19-24 = Sar; K25 = D-Lys; 3 Cys thioether-linked to TATA scaffold) [Bicycle Compound Number 92 (TATA scaffold), Ac-CPLVNPLCLHPGWSC(HArg)GQ-Sar6-(D-K)] was 1.88

Item: ACPLVNPLCLHPGWSCRGQ (linker 2-9-16 via TATA) [Bicycle Compound Number 87 (BCY6026) (TATA scaffold), ACPLVNPLCLHPGWSCRGQ] | log10(Ki): 1.27

Sample ARDCPLVNPLCLHPGWTCA (linker 4-11-18 via TATA) [Bicycle Compound Number 65 (TATA scaffold), ARDCPLVNPLCLHPGWTCA] ; log10(Ki) observed: 1.59

The reported value for XXXXXXXXXXXACPLVNPLCLHPGWTCLHG (X1 = β-Ala; X at 2-11 = Sar; H29 = D-His; 3 Cys thioether-linked to TATA scaffold) [Bicycle Compound Number 76 (TATA scaffold), (β-Ala)-Sar10-ACPLVNPLCLHPGWTCL(D-His)G] in terms of log10(Ki) is 1.88

binder ACPLVNPLCLHPGWTCLHG (linker 2-9-16 via TATA) [Bicycle Compound Number 73 (TATA scaffold), ACPLVNPLCLHPGWTCLHG] , log10(Ki) observed: 0.86
